Attribution: patent US20230348418A1

For each of the compounds below, state its pIC50.
# system.under.test: CRBN-DDB1 (Homo sapiens, UniProt Q96SW2)
# Sequence (Q96SW2 whole entry): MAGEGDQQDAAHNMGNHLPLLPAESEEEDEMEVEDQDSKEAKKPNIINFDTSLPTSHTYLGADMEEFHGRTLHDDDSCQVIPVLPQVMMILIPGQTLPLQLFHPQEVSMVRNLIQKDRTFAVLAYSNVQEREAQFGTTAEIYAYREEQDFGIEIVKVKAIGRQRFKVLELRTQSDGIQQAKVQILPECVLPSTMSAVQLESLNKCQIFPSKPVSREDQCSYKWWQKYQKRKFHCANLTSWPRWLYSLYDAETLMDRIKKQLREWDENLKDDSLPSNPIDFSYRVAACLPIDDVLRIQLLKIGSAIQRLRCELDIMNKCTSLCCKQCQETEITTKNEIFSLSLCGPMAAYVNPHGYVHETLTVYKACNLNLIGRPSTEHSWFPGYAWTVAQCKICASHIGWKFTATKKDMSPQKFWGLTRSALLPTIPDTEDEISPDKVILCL
# Sequence (Q16531 whole entry partner): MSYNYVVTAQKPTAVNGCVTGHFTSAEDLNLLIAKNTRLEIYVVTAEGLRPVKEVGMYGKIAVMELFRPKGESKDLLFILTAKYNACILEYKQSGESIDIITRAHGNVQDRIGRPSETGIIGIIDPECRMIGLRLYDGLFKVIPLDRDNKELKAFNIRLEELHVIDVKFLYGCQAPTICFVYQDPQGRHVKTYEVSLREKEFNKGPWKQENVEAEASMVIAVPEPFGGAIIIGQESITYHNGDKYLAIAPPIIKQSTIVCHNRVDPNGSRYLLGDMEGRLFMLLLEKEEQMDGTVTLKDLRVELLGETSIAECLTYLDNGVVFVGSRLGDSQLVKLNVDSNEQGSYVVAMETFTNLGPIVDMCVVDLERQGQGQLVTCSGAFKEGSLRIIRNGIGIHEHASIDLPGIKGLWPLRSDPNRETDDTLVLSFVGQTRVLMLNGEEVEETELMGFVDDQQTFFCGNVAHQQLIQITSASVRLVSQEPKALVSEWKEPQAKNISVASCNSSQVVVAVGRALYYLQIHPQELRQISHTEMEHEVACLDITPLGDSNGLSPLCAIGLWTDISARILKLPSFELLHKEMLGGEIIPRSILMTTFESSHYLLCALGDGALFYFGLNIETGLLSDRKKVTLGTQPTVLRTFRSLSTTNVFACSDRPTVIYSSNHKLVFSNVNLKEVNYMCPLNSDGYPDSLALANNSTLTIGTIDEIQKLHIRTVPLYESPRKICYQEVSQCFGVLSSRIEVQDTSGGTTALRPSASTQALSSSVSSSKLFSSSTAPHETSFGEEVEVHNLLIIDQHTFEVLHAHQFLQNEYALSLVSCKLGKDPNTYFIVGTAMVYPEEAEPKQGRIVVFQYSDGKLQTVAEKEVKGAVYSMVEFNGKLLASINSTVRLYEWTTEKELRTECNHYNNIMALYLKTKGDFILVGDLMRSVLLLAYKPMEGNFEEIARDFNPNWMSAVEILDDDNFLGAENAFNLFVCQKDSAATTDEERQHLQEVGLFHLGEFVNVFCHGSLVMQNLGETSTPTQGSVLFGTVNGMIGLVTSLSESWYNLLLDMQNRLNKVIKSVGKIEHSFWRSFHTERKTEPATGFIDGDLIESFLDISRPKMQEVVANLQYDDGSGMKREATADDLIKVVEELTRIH
# assay.text: HTRF binding of compounds to CRBN
# reported.conditions: read-out: HTRF Class (Cereblon binding, HTRF IC50)
pIC50: −log10 of the molar value.

So what does the record say about pIC50 for Cc1ccc(NC(=O)OCc2ccc3c(c2)C(=O)N(C2CCC(=O)NC2=O)C3)cc1 (stereo not shown) ?
6.00 to 7.00

So what does the record say about pIC50 for CCOc1ccc(F)c(NC(=O)OCc2ccc3c(c2)C(=O)N(C2CCC(=O)NC2=O)C3)c1 (stereo not shown) ?
> 7.00

So what does the record say about pIC50 for CC(C)(C)[C@H]1C[C@H](NC(=O)OCc2ccc3c(c2)C(=O)N(C2CCC(=O)NC2=O)C3)C1 (stereo partly shown) ?
6.00 to 7.00

So what does the record say about pIC50 for Cc1cc(F)c(NC(=O)OCc2ccc3c(c2)C(=O)N(C2CCC(=O)NC2=O)C3)cc1F (stereo not shown) ?
> 7.00

So what does the record say about pIC50 for CC(C)(C)c1cccc(NC(=O)OCc2ccc3c(c2)C(=O)N(C2CCC(=O)NC2=O)C3)n1 (stereo not shown) ?
6.00 to 7.00

So what does the record say about pIC50 for O=C1CCC(N2Cc3ccc(COC(=O)Nc4cc(OC(F)F)c(F)cn4)cc3C2=O)C(=O)N1 (stereo not shown) ?
6.00 to 7.00

So what does the record say about pIC50 for O=C1CCC(N2Cc3ccc(COC(=O)N[C@H]4C[C@H](c5ccccc5)C4)cc3C2=O)C(=O)N1 (stereo partly shown) ?
6.00 to 7.00

###

For each of the compounds below, state its IC50.
# system.under.test: Full length wild-type cereblon CRBN (Homo sapiens)
# Construct: Full length wild-type cereblon CRBN (80.0 nM, 10 μL) was incubated in assay buffer
# assay.text: Fluorescence polarization (FP) assay, cereblon binding
# reported.conditions: bounds stated in the text lists b2059-b2061; read-out: IC50 value

So what does the record say about IC50 for O=C1CCC(N2Cc3ccc(COC(=O)Nc4ccccc4)cc3C2=O)C(=O)N1 (stereo not shown) [Compound 138] ?
< 1.1 µM

So what does the record say about IC50 for CC1COc2cc(NC(=O)OCc3ccc4c(c3)C(=O)N(C3CCC(=O)NC3=O)C4)ccc21 (stereo not shown) [Compound 103] ?
< 1.7 µM

So what does the record say about IC50 for O=C1CCC(N2Cc3ccc(COC(=O)Nc4cc(CN5CCOCC5)cc(OC(F)F)c4)cc3C2=O)C(=O)N1 (stereo not shown) [Compound 95] ?
< 1.7 µM

So what does the record say about IC50 for CC(F)(F)c1ccc(NC(=O)OCc2ccc3c(c2)C(=O)N(C2CCC(=O)NC2=O)C3)cc1 (stereo not shown) [Compound 99] ?
< 1.7 µM

###

# system.under.test: Full length wild-type cereblon CRBN (Homo sapiens, UniProt Q96SW2)
# Construct: Full length wild-type cereblon CRBN (80.0 nM, 10 μL) was incubated in assay buffer
# Sequence (Q96SW2 whole entry): as the sequence (Q96SW2 whole entry) above
# assay.text: Fluorescence polarization (FP) assay, cereblon binding
# reported.conditions: bounds stated in the text lists b2059-b2061; read-out: IC50 value
parameter.measured: IC50

So what does the record say about IC50 for CC1(c2ccc(NC(=O)OCc3ccc4c(c3)C(=O)N(C3CCC(=O)NC3=O)C4)cc2)CC1 (stereo not drawn) ?
< 1700 nM

So what does the record say about IC50 for Cc1cc(NC(=O)OCc2ccc3c(c2)C(=O)N(C2CCC(=O)NC2=O)C3)cc(C)n1 (stereo not drawn) ?
< 1700 nM

So what does the record say about IC50 for Cc1c(Cl)cc(NC(=O)OCc2ccc3c(c2)C(=O)N(C2CCC(=O)NC2=O)C3)cc1OC1CCNC1 (stereo not drawn) ?
< 1700 nM
